Recorded inhibition at 1 µM values for a group of molecules are listed next.
- target: Cloned Human Serotonin Receptor, Subtype 7 (h5HT7), expressed in CHO cells (Homo sapiens, UniProt P34969)
- Construct: purchased PerkinElmer 6120512; host or cells: CHO cells
- Sequence (P34969 whole entry): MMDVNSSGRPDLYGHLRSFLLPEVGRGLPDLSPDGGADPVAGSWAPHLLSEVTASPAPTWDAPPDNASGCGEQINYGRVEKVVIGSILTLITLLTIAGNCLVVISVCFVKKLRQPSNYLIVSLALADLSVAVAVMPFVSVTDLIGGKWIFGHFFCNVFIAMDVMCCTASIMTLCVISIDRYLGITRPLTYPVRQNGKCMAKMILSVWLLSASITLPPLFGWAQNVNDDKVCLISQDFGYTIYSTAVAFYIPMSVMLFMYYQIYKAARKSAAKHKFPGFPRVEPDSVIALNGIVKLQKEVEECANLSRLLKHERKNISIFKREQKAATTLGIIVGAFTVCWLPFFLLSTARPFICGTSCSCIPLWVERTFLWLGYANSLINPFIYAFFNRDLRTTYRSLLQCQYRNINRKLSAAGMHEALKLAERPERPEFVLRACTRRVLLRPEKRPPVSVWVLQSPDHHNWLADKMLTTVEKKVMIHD
- experiment: Radioligand binding assay, [125I]LSD, cloned human 5HT7 receptor on Flashplate
- settings: read-out: %-Inhib. (10^−6 M)
quantity: inhibition at 1 µM (%)

1. COc1ccc(C(C)C)cc1CN1CCN(C(=O)Cc2c[nH]c3ccccc23)CC1: 16.3
2. Fc1ccccc1CN1CCN(c2cccc3[nH]ccc23)CC1: 82.6
3. Clc1ccccc1CN1CCN(c2cccc3[nH]ccc23)CC1: 78.2
4. Clc1ccc(CN2CCN(c3cccc4[nH]ccc34)CC2)cc1Cl: 54.7
5. COc1ccc(CN2CCN(c3ccccc3OC(C)C)CC2)c(OC)n1: 92.2
6. Clc1ccc(CN2CCN(c3cccc4[nH]ccc34)CC2)cn1: 66.8
7. c1ccc2cc(CN3CCN(c4cccc5[nH]ccc45)CC3)ccc2c1: 78.3
8. N#CCCCN1CCN(c2cccc3[nH]ccc23)CC1: 49.6
